Reference for the values: patent US20200131144A1

Molecular target: LXRβ full length (FL) (Homo sapiens, UniProt P55055, INS174Q)
Construct: the full length (FL) proteins of LXRα (amino acids 1-447); NP005684; NP009052
Sequence (P55055 with tags, fused parts or gaps INS174Q): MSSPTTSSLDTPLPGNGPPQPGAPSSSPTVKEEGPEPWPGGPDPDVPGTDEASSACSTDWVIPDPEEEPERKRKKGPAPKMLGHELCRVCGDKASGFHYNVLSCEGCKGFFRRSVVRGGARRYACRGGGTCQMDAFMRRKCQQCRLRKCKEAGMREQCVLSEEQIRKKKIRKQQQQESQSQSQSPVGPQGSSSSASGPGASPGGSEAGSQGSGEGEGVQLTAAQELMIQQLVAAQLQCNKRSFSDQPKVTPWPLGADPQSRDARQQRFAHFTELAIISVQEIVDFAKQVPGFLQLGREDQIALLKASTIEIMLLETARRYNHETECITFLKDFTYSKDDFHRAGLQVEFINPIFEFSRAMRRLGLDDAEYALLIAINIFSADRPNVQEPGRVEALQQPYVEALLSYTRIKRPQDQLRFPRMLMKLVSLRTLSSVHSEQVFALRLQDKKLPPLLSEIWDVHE
Test: LXR Gal4 reporter transient transfection assay, mammalian two-hybrid, FL-M2H Gal4β
Settings: HEK293 cells; inverse agonist unless *
Catalogue of EC50 values

The examples below pair each entry with its known result.
Return value of EC50 for input CC12CC3(C)CC(C)(C1)CC(C(=O)N(Cc1ccc(-c4cccc(C(C)(C)C(=O)O)c4)cc1)Cc1ccc(C(F)(F)F)o1)(C2)C3 , no commentary.
100 to 1000 nM

Given the compound Cc1ccc2ccc(F)cc2c1C(=O)N(Cc1ccc(-c2cccc(C(C)(C)C(=O)O)c2)cc1)Cc1ccc(C(F)(F)F)o1 , write its reported EC50.
< 100 nM

Indicate its recorded EC50; the compound in question is Cc1ccc2ccccc2c1C(=O)N(Cc1ccc(-c2cccc(C(C)(C)C(=O)NO)c2)cc1)Cc1ccc(C(F)(F)F)o1
< 100 nM

Please supply the value of reported EC50 for the item Cc1ccc2c(F)cccc2c1C(=O)N(Cc1ccc(-c2cccc(C(C)(C)C(=O)O)c2)cc1)Cc1ccc(C(F)(F)F)o1
< 100 nM

Tell us which EC50 value is on record for CONC(=O)CS(=O)(=O)c1cccc(-c2ccc(CN(Cc3ccc(C(F)(F)F)o3)Cc3c(C)cc(C)cc3C)cc2)c1
100 to 1000 nM

Find the measured EC50 of CCNC(=O)c1ccc(CN(Cc2ncc(-c3cccc(C(C)C(=O)O)c3)cc2Cl)C(=O)c2c(C)c(C)nc3ccccc23)o1 (stereo not drawn) and report it.
1000 to 10000 nM

Return EC50 for the following compound: Cc1nc2cccnc2c(C(=O)N(Cc2ccc(C(F)(F)F)o2)Cc2ccc(-c3cccc(C(C)(C)C(=O)O)c3)cc2F)c1C
< 100 nM

Specify reported EC50 for the compound shown: COc1cc(-c2cc(F)c(CO)c(S(=O)(=O)CC(=O)O)c2)cnc1CN(Cc1ccc(C(F)(F)F)o1)Cc1c(C)ccc2ccccc12
100 to 1000 nM

Further cases:
Answer with the recorded EC50 of Cc1ccc2ccccc2c1C(=O)N(Cc1ccc(-c2cccc(C(C)(C)C(=O)O)c2)cc1)Cc1ccc(C(=O)O)o1 only.
1000 to 10000 nM

Provide one value: measured EC50 of CC(C)(C(=O)O)c1cccc(-c2ccc(CN(Cc3ccc(C(F)(F)F)o3)C(CF)c3cccc4ccccc34)cc2)c1 (stereo not drawn)
100 to 1000 nM

Supply reported EC50 belonging to this compound: CN(C)c1ncc(CN(Cc2ccc(-c3cccc(C(C)(C)C(=O)O)c3)cc2)Cc2ccc(C(F)(F)F)o2)c2ccccc12
< 100 nM

Supply EC50 value. Item: Cc1cc(C)c(CN(Cc2ccc(-c3cc(F)c(CO)c(S(=O)(=O)CC(=O)O)c3)cc2)Cc2ccc(C(F)(F)F)o2)c(C)c1
100 to 1000 nM

Look up and report measured EC50 for this entry: COc1cc(-c2cccc(C(C)(C)C(=O)O)c2)ccc1CN(Cc1ccc(C(F)(F)F)o1)C(=O)c1c(C)ccc2ccccc12
< 100 nM

Provide measured EC50 value, entry: Cc1cc(C)c(CN(Cc2ccc(C(F)(F)F)o2)Cc2ccc(-c3cccc(S(=O)(=O)CC(=O)O)c3)cc2F)c(C)c1
100 to 1000 nM

Determine its reported EC50: O=C(O)CS(=O)(=O)c1cccc(-c2ccc(CN(Cc3ccc(C(F)(F)F)o3)Cc3cccc4ccccc34)cc2)c1
100 to 1000 nM

Please give measured EC50 of the following entry: Cc1cc(C)c(CN(Cc2ccc(-c3cc(F)c(CF)c(S(=O)(=O)CC(=O)O)c3)cc2)Cc2ccc(C(F)(F)F)o2)c(C)c1
100 to 1000 nM

Please give measured EC50 of the following entry: CCc1nc2ccccc2c(C(=O)N(Cc2ccc(-c3cccc(C(C)(C)C(=O)O)c3)cc2)Cc2ccc(C(F)(F)F)o2)c1C
< 100 nM
